B1: glmS ribozyme (parent)
chain: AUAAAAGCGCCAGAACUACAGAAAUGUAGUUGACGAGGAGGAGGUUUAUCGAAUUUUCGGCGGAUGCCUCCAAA

# Variants of: B1
# ASSAY_METHOD_TEXT: self-cleavage kobs at 10000 uM GlcN6P; higher = faster cleavage; RNA array
# CONDITION_CONTEXT: with glucosamine-6-phosphate
Variants at the floor of the assay were thinned out.

| VARIANT_ANNOTATION | UNIT_OF_MEASURE | MODIFIER | self-cleavage kobs at 10000 uM GlcN6P |
| --- | --- | --- | --- |
| C50A | s⁻¹ | = | 2.49e-05 |
| A12G U55A C68U | s⁻¹ | = | 0.00042 |
| U47G A53C | s⁻¹ | = | 0.00439 |
| A6G C16A G37C U69C | s⁻¹ | < | 1e-05 |
| G60C A64U | s⁻¹ | < | 1e-05 |
| C16A U46A | s⁻¹ | = | 6.82e-05 |
| G9C G29U | s⁻¹ | < | 1e-05 |
| G13C A48G G66U C71G | s⁻¹ | < | 1e-05 |
| U31C G40A G59U | s⁻¹ | < | 1e-05 |
| C11A U54G | s⁻¹ | = | 0.000123 |
| G38A G51U A52U | s⁻¹ | < | 1e-05 |
| C50G A53G C61U | s⁻¹ | = | 9.79e-05 |
| A14G A48G | s⁻¹ | = | 0.000203 |
| G43U C61U | s⁻¹ | < | 1e-05 |
| G62A A64U | s⁻¹ | < | 1e-05 |
| G13A U31G | s⁻¹ | = | 0.000153 |
| U31G A53G | s⁻¹ | = | 0.02 |
| G7C G43U | s⁻¹ | < | 1e-05 |
| A12G U54A | s⁻¹ | = | 0.000878 |
| G38A U57C A64U | s⁻¹ | < | 1e-05 |
| U47C A48U C70U | s⁻¹ | = | 0.00044 |
| G9U U30C G32A | s⁻¹ | < | 1e-05 |
| G51C C61U G62C | s⁻¹ | < | 1e-05 |
| G7U G37U | s⁻¹ | < | 1e-05 |
| U55A C58U | s⁻¹ | = | 7.74e-05 |
| U45C A48U U65A | s⁻¹ | < | 1e-05 |
| G29U A36C G38A G40A | s⁻¹ | < | 1e-05 |
| A12C A42G C70A | s⁻¹ | = | 2.91e-05 |
| U46G G63C | s⁻¹ | < | 1e-05 |
| A33U A42C U47G U54A | s⁻¹ | < | 1e-05 |
| A39G | s⁻¹ | = | 0.075 |
| G32A U47G A52G C61G C71G | s⁻¹ | = | 6.89e-05 |
| C10G A53C A64G | s⁻¹ | < | 1e-05 |
| A14G A52G | s⁻¹ | = | 0.00467 |
| A36C U49A G62C C70U | s⁻¹ | < | 1e-05 |
| U46A U54G C70G | s⁻¹ | = | 0.000127 |
| U45G U46G C61A | s⁻¹ | < | 1e-05 |
| G40U U46A | s⁻¹ | = | 0.000331 |
| C8U G66C | s⁻¹ | < | 1e-05 |
| A33U G62U C71A | s⁻¹ | < | 1e-05 |
| G7C G35U U54G | s⁻¹ | < | 1e-05 |
| A6G C50G | s⁻¹ | = | 3.84e-05 |
| C11U C67G | s⁻¹ | = | 0.000189 |
| G13C C67U | s⁻¹ | = | 4.04e-05 |
| G35C G63A | s⁻¹ | < | 1e-05 |
